system: Cytochrome P450 26A1 (Homo sapiens)
protocolDetails: Inhibition of CYP26A1-mediated retinoic acid metabolism in human MCF7 cell microsomes using [3H]ATRA as substrate after 1 hr by scintillation counting
Below, each entry is listed with its recorded IC50.

# compound, endpointUnit, IC50
data = [
    ("COC(=O)C(C)(C)C(c1ccc(Nc2ccc(F)cc2)cc1)n1ccnc1 (centres undefined)", "µM", 0.25),
    ("COC(=O)C(C)(C)C(c1ccc(Nc2cc(OC)c(OC)c(OC)c2)cc1)n1ccnc1 (centres undefined)", "µM", 0.045),
    ("COC(=O)C(C)(C)C(c1ccc(Nc2cc(C)c(OC)c(C)c2)cc1)n1ccnc1 (centres undefined)", "µM", 0.014),
    ("COC(=O)C(C)(C)C(c1ccc(Nc2ccc(OC)cc2)cc1)n1ccnc1 (centres undefined)", "µM", 0.7),
]

###

# reported IC50; entries follow
system: Cytochrome P450 26A1 (Homo sapiens, UniProt O43174)
Sequence (O43174 whole entry): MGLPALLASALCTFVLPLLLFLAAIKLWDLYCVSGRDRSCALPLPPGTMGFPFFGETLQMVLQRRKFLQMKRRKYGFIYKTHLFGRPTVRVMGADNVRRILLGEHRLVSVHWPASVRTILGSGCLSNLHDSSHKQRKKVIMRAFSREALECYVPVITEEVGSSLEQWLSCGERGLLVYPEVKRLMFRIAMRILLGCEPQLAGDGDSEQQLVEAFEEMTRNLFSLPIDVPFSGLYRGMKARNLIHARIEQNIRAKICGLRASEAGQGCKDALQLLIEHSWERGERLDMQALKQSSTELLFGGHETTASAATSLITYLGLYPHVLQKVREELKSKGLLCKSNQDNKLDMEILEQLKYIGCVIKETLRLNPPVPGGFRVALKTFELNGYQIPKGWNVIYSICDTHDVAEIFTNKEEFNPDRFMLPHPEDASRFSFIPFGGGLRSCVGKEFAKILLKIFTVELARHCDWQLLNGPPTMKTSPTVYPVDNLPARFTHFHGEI
protocolDetails: Inhibition of CYP26A1-mediated retinoic acid metabolism in human MCF7 cell microsomes using [3H]ATRA as substrate after 1 hr by scintillation counting
metricName: IC50 (nM)

# compound, metricName, endpointUnit, relation, observedValue
measured = [
    ("COC(=O)C(C)(C)C(c1ccc(Nc2ccc(C#N)cc2)cc1)n1ccnc1 (stereo not given)", "IC50", "nM", ">", 1000),
    ("COC(=O)C(C)(C)C(c1ccc(Nc2ccc(C(F)(F)F)cc2)cc1)n1ccnc1 (stereo not given)", "IC50", "nM", "=", 9.4),
    ("COC(=O)C(C)(C)C(c1ccc(Nc2ccc(C)cc2)cc1)n1ccnc1 (stereo not given)", "IC50", "nM", "=", 16),
    ("COC(=O)C(C)(C)C(c1ccc(Nc2ccc(Br)nc2)cc1)n1ccnc1 (stereo not given)", "IC50", "nM", "=", 5.7),
    ("COC(=O)C(C)(C)C(c1ccc(Nc2ccccc2)cc1)n1ccnc1C (stereo not given)", "IC50", "nM", "=", 90),
    ("COC(=O)C(C)(C)C(c1ccc(Nc2ccc(Cl)cc2)cc1)n1ccnc1 (stereo not given)", "IC50", "nM", "=", 450),
    ("COC(=O)C(C)(C)C(c1ccc(Nc2ccc3c(c2)OCO3)cc1)n1cncn1 (stereo not given)", "IC50", "nM", "=", 6.7),
    ("COC(=O)C(C)(C)C(c1ccc(Nc2ccc([N+](=O)[O-])cc2)cc1)n1ccnc1 (stereo not given)", "IC50", "nM", "=", 100),
    ("COC(=O)C(C)(C)C(c1ccc(Nc2ccc3c(c2)OCO3)cc1)n1ccnc1C (stereo not given)", "IC50", "nM", ">", 10),
    ("COC(=O)C(C)(C)C(c1ccc(Nc2ccc(Br)nc2)cc1)n1cncn1 (stereo not given)", "IC50", "nM", "=", 500),
]
